Test system: Hepatotoxicity
experimental protocol: FDA HLAED, alkaline phosphatase increase
recorded conditions: human
endpoint label: Alkaline Phosphatase Increase - Index Value

- molecule: "Nc1nc(Cl)nc2c1ncn2[C@H]1C[C@H](O)[C@@H](CO)O1"
  target system: "Hepatotoxicity"
  observed measurement: 16.2
- molecule: "NCCCC[C@H](N[C@@H](CCc1ccccc1)C(=O)O)C(=O)N1CCC[C@H]1C(=O)O [LISINOPRIL ANHYDROUS]"
  target system: "Hepatotoxicity"
  observed measurement: 2
- molecule: "CC(C)(C)NCC(O)c1ccc(O)c(CO)n1 (stereo not drawn)"
  target system: "Hepatotoxicity"
  observed measurement: 0
- molecule: "N=C(N)NC(=O)Cc1c(Cl)cccc1Cl"
  target system: "Hepatotoxicity"
  observed measurement: 1
- molecule: "CCCCCCC(=O)O[C@H]1CC[C@H]2[C@@H]3CCc4cc(O)ccc4[C@H]3CC[C@]12C [ESTRADIOL ENANTHATE]"
  target system: "Hepatotoxicity"
  observed measurement: 1.5
- molecule: "N=C(N)c1ccc(OCCCCCOc2ccc(C(=N)N)cc2)cc1"
  target system: "Hepatotoxicity"
  observed measurement: 11.5
- molecule: "Cc1cc(CC(=O)O)n(C)c1C(=O)c1ccc(Cl)cc1 [ZOMEPIRAC]"
  target system: "Hepatotoxicity"
  observed measurement: 1.1
- molecule: "CC(NCCc1ccc(O)cc1)C(O)c1ccc(O)cc1 (stereo not drawn)"
  target system: "Hepatotoxicity"
  observed measurement: 1.1
- molecule: "COCC(=O)Nc1c(I)c(C(=O)NCC(O)CO)c(I)c(C(=O)N(C)CC(O)CO)c1I (stereo not drawn) [IOPROMIDE]"
  target system: "Hepatotoxicity"
  observed measurement: 0
- molecule: "CCOC(=O)c1ccc(C#Cc2ccc3c(c2)C(C)(C)CCS3)nc1"
  target system: "Hepatotoxicity"
  observed measurement: 0
- molecule: "CCOC(=O)[C@H](CCc1ccccc1)N[C@H]1CCc2ccccc2N(CC(=O)O)C1=O"
  target system: "Hepatotoxicity"
  observed measurement: 0.3
- molecule: "O=[N+]([O-])O[C@@H]1CO[C@H]2[C@@H]1OC[C@@H]2O [ISOSORBIDE MONONITRATE]"
  target system: "Hepatotoxicity"
  observed measurement: 0
- molecule: "CN(C)CCCN1c2ccccc2CCc2ccc(Cl)cc21"
  target system: "Hepatotoxicity"
  observed measurement: 0
- molecule: "Oc1ccc2c3c1O[C@H]1[C@@H](O)CC[C@@]4(O)[C@@H](C2)N(CC2CCC2)CC[C@]314"
  target system: "Hepatotoxicity"
  observed measurement: 0
- molecule: "CCCCC(C)(O)C/C=C/[C@H]1[C@H](O)CC(=O)[C@@H]1CCCCCCC(=O)OC (stereo partly drawn)"
  target system: "Hepatotoxicity"
  observed measurement: 0.8
- molecule: "C[C@@H]1CN(c2c(F)c(N)c3c(=O)c(C(=O)O)cn(C4CC4)c3c2F)C[C@H](C)N1"
  target system: "Hepatotoxicity"
  observed measurement: 0
- molecule: "COCCc1ccc(OCC(O)CNC(C)C)cc1 (stereo not drawn)"
  target system: "Hepatotoxicity"
  observed measurement: 0.4
- molecule: "Clc1cccc(Cl)c1N=C1NCCN1"
  target system: "Hepatotoxicity"
  observed measurement: 11.5

###

System: Hepatotoxicity
experimental protocol: FDA HLAED, serum glutamic pyruvic transaminase (SGPT) increase
recorded conditions: human
endpoint label: SGPT Increase - Index Value

- compound: "CC(C)(C)NC[C@H](O)COc1nsnc1N1CCOCC1 [TIMOLOL]"
  endpoint label: "SGPT Increase - Index Value"
  observed measurement: 0.1
- compound: "FC(F)OC(F)C(F)(F)F (stereo not drawn)"
  endpoint label: "SGPT Increase - Index Value"
  observed measurement: 0.8
- compound: "CCOC(=O)[C@H](CCc1ccccc1)N[C@@H](C)C(=O)N1[C@H](C(=O)O)C[C@H]2CCCC[C@@H]21 [TRANDOLAPRIL]"
  endpoint label: "SGPT Increase - Index Value"
  observed measurement: 10.5
- compound: "COc1ccc(CC2c3cc(OC)c(OC)cc3CC[N+]2(C)CCC(=O)OCCCCCOC(=O)CC[N+]2(C)CCc3cc(OC)c(OC)cc3C2Cc2ccc(OC)c(OC)c2)cc1OC (stereo not drawn)"
  endpoint label: "SGPT Increase - Index Value"
  observed measurement: 0
- compound: "Cc1ccnc2c1NC(=O)c1cccnc1N2C1CC1 [NEVIRAPINE]"
  endpoint label: "SGPT Increase - Index Value"
  observed measurement: 55
- compound: "CCCCC[C@H](O)/C=C/[C@H]1[C@H](O)CC(=O)[C@@H]1CCCCCCC(=O)O [ALPROSTADIL]"
  endpoint label: "SGPT Increase - Index Value"
  observed measurement: 0
- compound: "C[C@H](CS)C(=O)N1CCC[C@H]1C(=O)O [CAPTOPRIL]"
  endpoint label: "SGPT Increase - Index Value"
  observed measurement: 0.7
- compound: "C[C@H]1[C@H](NC(=O)/C(=N\\OC(C)(C)C(=O)O)c2csc(N)n2)C(=O)N1S(=O)(=O)O [AZTREONAM]"
  endpoint label: "SGPT Increase - Index Value"
  observed measurement: 3.8
- compound: "Clc1ccc(CO/N=C(\\Cn2ccnc2)c2ccc(Cl)cc2Cl)c(Cl)c1 [OXICONAZOLE]"
  endpoint label: "SGPT Increase - Index Value"
  observed measurement: 0
- compound: "OC(Cn1cncn1)(Cn1cncn1)c1ccc(F)cc1F [FLUCONAZOLE]"
  endpoint label: "SGPT Increase - Index Value"
  observed measurement: 9.1
- compound: "CC1(C)C(C=C(Cl)Cl)C1C(=O)OCc1cccc(Oc2ccccc2)c1 (stereo not drawn) [PERMETHRIN]"
  endpoint label: "SGPT Increase - Index Value"
  observed measurement: 0
- compound: "O=C1CN=C(c2ccccc2)c2cc(Cl)ccc2N1CC1CC1 [PRAZEPAM]"
  endpoint label: "SGPT Increase - Index Value"
  observed measurement: 0.3
- compound: "CC[C@@]1(O)C(=O)OCc2c1cc1n(c2=O)Cc2cc3c(CN(C)C)c(O)ccc3nc2-1 [TOPOTECAN]"
  endpoint label: "SGPT Increase - Index Value"
  observed measurement: 0
